System under test: CLK3 (Homo sapiens, UniProt P49761)
Sequence (P49761 whole entry): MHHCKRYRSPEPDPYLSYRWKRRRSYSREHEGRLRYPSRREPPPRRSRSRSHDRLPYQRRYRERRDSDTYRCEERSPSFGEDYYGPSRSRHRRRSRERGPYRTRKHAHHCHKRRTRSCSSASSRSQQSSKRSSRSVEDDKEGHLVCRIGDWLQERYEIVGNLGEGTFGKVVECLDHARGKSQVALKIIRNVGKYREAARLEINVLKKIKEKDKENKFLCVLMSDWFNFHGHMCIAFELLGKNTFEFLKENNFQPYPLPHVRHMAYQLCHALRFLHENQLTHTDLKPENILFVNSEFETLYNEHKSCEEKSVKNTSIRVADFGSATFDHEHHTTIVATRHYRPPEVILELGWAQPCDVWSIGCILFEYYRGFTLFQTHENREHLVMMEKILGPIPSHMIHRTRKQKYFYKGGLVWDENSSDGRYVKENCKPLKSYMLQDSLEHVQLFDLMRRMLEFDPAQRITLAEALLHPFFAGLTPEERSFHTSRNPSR
Quantity: pIC50
Quick note: pIC50 means taking -log10 of the concentration in moles per liter.

Task item: pIC50 lookup needed for Cn1cncc1C1=CN(c2ncnc3nc[nH]c23)CCS1 [Compound 1, Aplithianine A] , thanks.
Reply: 4.85

----------
System under test: MAP2K1 (MEK1) (Homo sapiens, UniProt Q02750)
Sequence (Q02750 whole entry): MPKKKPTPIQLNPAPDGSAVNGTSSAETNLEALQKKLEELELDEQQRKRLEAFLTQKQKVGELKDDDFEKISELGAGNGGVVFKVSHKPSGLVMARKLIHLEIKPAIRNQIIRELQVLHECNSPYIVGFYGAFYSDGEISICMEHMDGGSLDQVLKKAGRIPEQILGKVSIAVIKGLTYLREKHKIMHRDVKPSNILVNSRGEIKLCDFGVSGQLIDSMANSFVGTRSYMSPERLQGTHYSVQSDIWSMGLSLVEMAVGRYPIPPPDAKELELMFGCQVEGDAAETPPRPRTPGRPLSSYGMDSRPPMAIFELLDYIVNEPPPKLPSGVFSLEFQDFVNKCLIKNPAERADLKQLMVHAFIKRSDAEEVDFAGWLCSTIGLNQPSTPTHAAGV
Assay protocol: HOTSPOT radiometric kinase assay
Experimental conditions: read-out: MAP2K1 / MEK1 IC50; 10 μM ATP
Quantity: pIC50
Quick note: pIC50 means taking -log10 of the concentration in moles per liter.

Task item: pIC50 lookup needed for Cn1cncc1C1=CN(c2ncnc3nc[nH]c23)CCS1 , thanks.
Reply: 4.63

----------
System under test: ERBB2/HER2 (Homo sapiens)
Sequence (P04626 23-1255): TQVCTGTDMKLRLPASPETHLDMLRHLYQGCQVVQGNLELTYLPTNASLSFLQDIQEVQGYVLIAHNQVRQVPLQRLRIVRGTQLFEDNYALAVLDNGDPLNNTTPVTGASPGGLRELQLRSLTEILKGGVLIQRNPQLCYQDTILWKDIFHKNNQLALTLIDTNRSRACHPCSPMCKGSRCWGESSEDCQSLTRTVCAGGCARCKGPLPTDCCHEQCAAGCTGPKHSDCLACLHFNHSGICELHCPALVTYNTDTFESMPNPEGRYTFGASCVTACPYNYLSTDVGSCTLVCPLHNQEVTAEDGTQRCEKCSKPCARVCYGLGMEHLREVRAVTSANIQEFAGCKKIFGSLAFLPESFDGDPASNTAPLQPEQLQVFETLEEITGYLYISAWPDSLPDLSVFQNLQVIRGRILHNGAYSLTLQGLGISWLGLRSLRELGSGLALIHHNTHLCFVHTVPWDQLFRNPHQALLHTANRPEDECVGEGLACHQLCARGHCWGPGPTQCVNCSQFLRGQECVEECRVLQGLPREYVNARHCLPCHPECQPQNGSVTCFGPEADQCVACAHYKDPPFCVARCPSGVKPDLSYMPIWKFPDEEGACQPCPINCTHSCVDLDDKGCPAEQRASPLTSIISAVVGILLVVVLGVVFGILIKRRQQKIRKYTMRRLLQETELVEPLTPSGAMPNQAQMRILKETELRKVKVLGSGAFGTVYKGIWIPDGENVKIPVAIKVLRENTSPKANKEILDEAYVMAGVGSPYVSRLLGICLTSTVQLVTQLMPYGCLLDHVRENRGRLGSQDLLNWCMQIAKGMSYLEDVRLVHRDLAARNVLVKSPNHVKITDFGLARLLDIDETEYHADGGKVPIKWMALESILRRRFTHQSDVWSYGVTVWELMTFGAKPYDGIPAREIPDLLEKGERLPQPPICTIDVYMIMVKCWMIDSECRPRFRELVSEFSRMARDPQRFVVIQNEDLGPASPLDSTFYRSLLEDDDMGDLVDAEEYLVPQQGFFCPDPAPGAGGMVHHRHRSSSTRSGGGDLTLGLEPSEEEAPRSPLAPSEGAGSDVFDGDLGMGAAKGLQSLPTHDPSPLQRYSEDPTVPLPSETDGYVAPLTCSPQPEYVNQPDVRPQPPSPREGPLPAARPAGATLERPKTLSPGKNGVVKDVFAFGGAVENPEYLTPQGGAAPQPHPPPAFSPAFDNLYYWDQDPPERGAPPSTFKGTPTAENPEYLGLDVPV
Assay protocol: HOTSPOT radiometric kinase assay
Quantity: IC50

Task item: Field: IC50 (ERBB2/HER2 (Homo sapiens)). Entry: Cn1cnc(Br)c1C1=CN(c2ncnc3nc[nH]c23)CCS1 [Compound 1a, Aplithianine A1]
Reply: 18 to 65 µM

Task item: Field: IC50 (ERBB2/HER2 (Homo sapiens)). Entry: Cn1cncc1C1=CN(c2ncnc3nc[nH]c23)CCS1 [Compound 1, Aplithianine A]
Reply: 18 to 65 µM

----------
System under test: CLK4 (Homo sapiens)
Construct: purchased Reaction Biology Corp
Sequence (Q9HAZ1 whole entry): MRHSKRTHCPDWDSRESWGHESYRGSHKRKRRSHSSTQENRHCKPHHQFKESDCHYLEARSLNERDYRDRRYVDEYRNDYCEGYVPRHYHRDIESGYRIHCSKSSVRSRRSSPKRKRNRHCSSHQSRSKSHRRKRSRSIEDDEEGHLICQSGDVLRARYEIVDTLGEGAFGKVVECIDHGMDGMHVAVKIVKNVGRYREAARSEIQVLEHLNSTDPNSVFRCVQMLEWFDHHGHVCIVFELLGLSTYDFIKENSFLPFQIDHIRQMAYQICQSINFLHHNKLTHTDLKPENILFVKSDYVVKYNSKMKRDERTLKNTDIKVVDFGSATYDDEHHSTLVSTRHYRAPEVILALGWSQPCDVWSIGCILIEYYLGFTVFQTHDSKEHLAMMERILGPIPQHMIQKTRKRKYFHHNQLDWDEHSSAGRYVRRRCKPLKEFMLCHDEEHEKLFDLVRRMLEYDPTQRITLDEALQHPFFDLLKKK
Assay protocol: HOTSPOT radiometric kinase assay
Assay type: biochemical
Experimental conditions: 10 μM ATP; read-out: CLK4 IC50
Quantity: pIC50
Quick note: pIC50 means taking -log10 of the concentration in moles per liter.

Task item: pIC50 lookup needed for Cn1cncc1C1=CN(c2ncnc3nc[nH]c23)CCS1 , thanks.
Reply: 6.82

----------
I'd appreciate it if you could supply pIC50 values for the items below.
System under test: PKCα (Homo sapiens, UniProt P17252)
Assay protocol: HOTSPOT radiometric kinase assay
pIC50: −log10 of the molar value.

Task item: pIC50 lookup needed for Cn1cnc(Br)c1C1=CN(c2ncnc3nc[nH]c23)CCS1 , thanks.
Reply: 5.18 to 6.10

Task item: pIC50 lookup needed for Cn1cncc1C1=CN(c2ncnc3nc[nH]c23)CCS1 , thanks.
Reply: 5.18 to 6.10

----------
System under test: PKCγ (Homo sapiens, UniProt P05129)
Construct: purchased Reaction Biology Corp
Assay protocol: HOTSPOT radiometric kinase assay
Type: biochemical
Experimental conditions: Table 4 dose-response; read-out: PKCg IC50 Values
Quantity: pIC50
Quick note: pIC50 means taking -log10 of the concentration in moles per liter.

Task item: Field: pIC50 (PKCγ (Homo sapiens, UniProt P05129)). Entry: Cn1cncc1C1=CN(c2ncnc3nc[nH]c23)CCS1
Reply: 6.80

----------
System under test: MAP2K1 (MEK1) (Homo sapiens)
Assay protocol: HOTSPOT radiometric kinase assay
I'd appreciate it if you could supply IC50 values for the items below.

Task item: Field: IC50 (MAP2K1 (MEK1) (Homo sapiens)). Entry: Cn1cnc(Br)c1C1=CN(c2ncnc3nc[nH]c23)CCS1
Reply: 18 to 65 µM

Task item: Field: IC50 (MAP2K1 (MEK1) (Homo sapiens)). Entry: Cn1cncc1C1=CN(c2ncnc3nc[nH]c23)CCS1
Reply: 18 to 65 µM

----------
System under test: PKCδ (Homo sapiens, UniProt Q05655)
Construct: purchased Reaction Biology Corp
Sequence (Q05655 whole entry): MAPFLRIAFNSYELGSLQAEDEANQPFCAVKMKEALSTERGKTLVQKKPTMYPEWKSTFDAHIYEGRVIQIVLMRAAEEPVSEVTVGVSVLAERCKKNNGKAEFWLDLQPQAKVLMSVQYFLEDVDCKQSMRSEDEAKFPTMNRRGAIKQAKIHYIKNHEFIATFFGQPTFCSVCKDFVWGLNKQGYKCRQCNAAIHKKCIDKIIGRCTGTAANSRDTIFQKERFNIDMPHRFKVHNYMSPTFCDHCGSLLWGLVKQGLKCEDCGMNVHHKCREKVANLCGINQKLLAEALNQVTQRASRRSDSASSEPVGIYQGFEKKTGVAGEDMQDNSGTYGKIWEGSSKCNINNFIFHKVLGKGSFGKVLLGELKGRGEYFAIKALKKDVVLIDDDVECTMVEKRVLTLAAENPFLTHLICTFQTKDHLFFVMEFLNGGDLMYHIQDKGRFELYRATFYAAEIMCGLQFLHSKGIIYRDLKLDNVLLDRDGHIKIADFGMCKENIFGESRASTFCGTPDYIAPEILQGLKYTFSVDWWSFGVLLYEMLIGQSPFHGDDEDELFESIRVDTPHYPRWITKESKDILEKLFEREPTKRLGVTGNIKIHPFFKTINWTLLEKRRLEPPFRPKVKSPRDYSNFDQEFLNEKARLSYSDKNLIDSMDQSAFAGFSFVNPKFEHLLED
Assay protocol: HOTSPOT radiometric kinase assay
Format: biochemical
Experimental conditions: 10 μM ATP; read-out: PKCδ IC50
Quantity: pIC50
Quick note: pIC50 means taking -log10 of the concentration in moles per liter.

Task item: pIC50 lookup needed for Cn1cncc1C1=CN(c2ncnc3nc[nH]c23)CCS1 [Compound 1, Aplithianine A] , thanks.
Reply: 6.74

----------
System under test: DYRK1A (Homo sapiens, UniProt Q13627)
Construct: purchased Reaction Biology Corp
Assay protocol: HOTSPOT radiometric kinase assay
Type: biochemical
Experimental conditions: Table 4 dose-response; read-out: DYRK1A IC50 Values
Quantity: pIC50
Quick note: pIC50 means taking -log10 of the concentration in moles per liter.

Task item: Field: pIC50 (DYRK1A (Homo sapiens, UniProt Q13627)). Entry: Cn1cncc1C1=CN(c2ncnc3nc[nH]c23)CCS1
Reply: 6.94

----------
System under test: GSK3β (Homo sapiens, UniProt P49841)
Sequence (P49841 whole entry): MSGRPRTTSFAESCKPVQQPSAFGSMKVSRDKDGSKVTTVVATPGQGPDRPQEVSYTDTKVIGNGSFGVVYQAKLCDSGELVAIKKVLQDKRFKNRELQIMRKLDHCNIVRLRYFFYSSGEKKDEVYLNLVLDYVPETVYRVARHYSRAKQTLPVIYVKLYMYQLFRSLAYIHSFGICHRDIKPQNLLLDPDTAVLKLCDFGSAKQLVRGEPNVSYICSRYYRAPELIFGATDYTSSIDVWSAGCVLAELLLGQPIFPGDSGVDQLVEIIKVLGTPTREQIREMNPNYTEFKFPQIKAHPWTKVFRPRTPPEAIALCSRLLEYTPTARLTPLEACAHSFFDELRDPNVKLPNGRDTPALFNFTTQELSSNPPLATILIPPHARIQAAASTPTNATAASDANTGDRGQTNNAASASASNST
Assay protocol: HOTSPOT radiometric kinase assay
Quantity: IC50

Task item: IC50 lookup needed for Cn1cnc(Br)c1C1=CN(c2ncnc3nc[nH]c23)CCS1 [Compound 1a, Aplithianine A1] , thanks.
Reply: 43 to 189 nM

Task item: IC50 lookup needed for Cn1cncc1C1=CN(c2ncnc3nc[nH]c23)CCS1 [Compound 1, Aplithianine A] , thanks.
Reply: 43 to 189 nM

----------
System under test: DYRK2 (Homo sapiens, UniProt Q92630)
Construct: purchased Reaction Biology Corp
Sequence (Q92630 whole entry): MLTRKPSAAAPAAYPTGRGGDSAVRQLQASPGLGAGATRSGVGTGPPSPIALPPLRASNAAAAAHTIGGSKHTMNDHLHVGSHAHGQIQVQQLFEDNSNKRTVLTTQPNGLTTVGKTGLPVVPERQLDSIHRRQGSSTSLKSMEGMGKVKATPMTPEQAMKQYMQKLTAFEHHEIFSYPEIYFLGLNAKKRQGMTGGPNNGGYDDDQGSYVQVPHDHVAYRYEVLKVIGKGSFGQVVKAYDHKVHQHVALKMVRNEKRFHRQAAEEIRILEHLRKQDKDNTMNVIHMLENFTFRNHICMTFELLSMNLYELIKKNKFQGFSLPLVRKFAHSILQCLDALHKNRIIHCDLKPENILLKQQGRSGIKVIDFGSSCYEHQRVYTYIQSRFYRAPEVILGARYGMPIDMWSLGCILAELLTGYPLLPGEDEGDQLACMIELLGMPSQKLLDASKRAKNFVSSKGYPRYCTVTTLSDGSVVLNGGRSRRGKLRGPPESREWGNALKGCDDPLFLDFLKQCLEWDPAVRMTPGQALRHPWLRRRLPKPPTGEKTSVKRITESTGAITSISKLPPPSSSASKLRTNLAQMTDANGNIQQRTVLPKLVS
Assay protocol: HOTSPOT radiometric kinase assay
Type: biochemical
Experimental conditions: Table 4 dose-response; read-out: DYRK2 IC50 Values
Quantity: IC50
Provide the measurement as a number trailed by its unit.

Task item: IC50 lookup needed for Cn1cncc1C1=CN(c2ncnc3nc[nH]c23)CCS1 , thanks.
Reply: 0.151 µM

----------
System under test: UniProt:P48729
Assay protocol: HOTSPOT radiometric kinase assay
Experimental conditions: read-out: CK1α1 IC50; 10 μM ATP
Quantity: pIC50
Quick note: pIC50 means taking -log10 of the concentration in moles per liter.

Task item: Field: pIC50 (UniProt:P48729). Entry: Cn1cncc1C1=CN(c2ncnc3nc[nH]c23)CCS1 [Compound 1, Aplithianine A]
Reply: 5.74

----------
System under test: PKCδ (Homo sapiens, UniProt Q05655)
Construct: purchased Reaction Biology Corp
Assay protocol: HOTSPOT radiometric kinase assay
Assay type: biochemical
Experimental conditions: Table 4 dose-response; read-out: PKCd IC50 Values
Quantity: IC50 (nM)
Numbers only; they are read as nM.

Task item: IC50 lookup needed for Cn1cncc1C1=CN(c2ncnc3nc[nH]c23)CCS1 , thanks.
Reply: 191

----------
System under test: UniProtKB Q9NR20
Sequence (Q9NR20 1-520): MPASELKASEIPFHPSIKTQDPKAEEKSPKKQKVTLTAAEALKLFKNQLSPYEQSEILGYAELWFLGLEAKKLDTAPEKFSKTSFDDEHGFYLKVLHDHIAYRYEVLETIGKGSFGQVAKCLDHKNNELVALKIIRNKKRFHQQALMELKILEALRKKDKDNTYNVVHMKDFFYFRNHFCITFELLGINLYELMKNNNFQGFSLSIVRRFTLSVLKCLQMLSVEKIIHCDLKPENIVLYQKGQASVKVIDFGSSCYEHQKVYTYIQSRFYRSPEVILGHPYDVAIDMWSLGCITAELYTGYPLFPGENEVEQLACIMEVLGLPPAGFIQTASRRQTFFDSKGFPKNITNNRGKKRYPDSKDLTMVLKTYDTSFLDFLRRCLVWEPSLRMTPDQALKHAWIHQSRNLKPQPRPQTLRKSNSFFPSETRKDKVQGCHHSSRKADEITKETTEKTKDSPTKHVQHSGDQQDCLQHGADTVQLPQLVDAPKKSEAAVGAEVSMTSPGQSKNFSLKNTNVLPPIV
I'd appreciate it if you could supply pIC50 values for the items below.
Quick note: pIC50 means taking -log10 of the concentration in moles per liter.

Task item: pIC50 lookup needed for O=C1Nc2ccc(I)cc2/C1=C/c1cc(Br)c(O)c(Br)c1 [GW5074, reference compound] , thanks.
Reply: 5.44

Task item: pIC50 lookup needed for Cn1cncc1C1=CN(c2ncnc3nc[nH]c23)CCS1 , thanks.
Reply: 4.82

----------
System under test: FLT1/VEGFR1 (Homo sapiens)
Assay protocol: HOTSPOT radiometric kinase assay
Experimental conditions: read-out: FLT1/VEGFR1 IC50; 10 μM ATP
Quantity: IC50 (µM)
Numbers only; they are read as µM.

Task item: IC50 lookup needed for Cn1cncc1C1=CN(c2ncnc3nc[nH]c23)CCS1 , thanks.
Reply: 18.8

----------
System under test: DYRK1A (Homo sapiens, UniProt Q13627)
Construct: purchased Reaction Biology Corp
Assay protocol: HOTSPOT radiometric kinase assay
Assay type: biochemical
Experimental conditions: 10 μM ATP; read-out: DYRK1A IC50
Quantity: IC50 (nM)
Numbers only; they are read as nM.

Task item: IC50 lookup needed for Cn1cncc1C1=CN(c2ncnc3nc[nH]c23)CCS1 [Compound 1, Aplithianine A] , thanks.
Reply: 119

----------
System under test: DYRK1B (Homo sapiens)
Sequence (Q9Y463 whole entry): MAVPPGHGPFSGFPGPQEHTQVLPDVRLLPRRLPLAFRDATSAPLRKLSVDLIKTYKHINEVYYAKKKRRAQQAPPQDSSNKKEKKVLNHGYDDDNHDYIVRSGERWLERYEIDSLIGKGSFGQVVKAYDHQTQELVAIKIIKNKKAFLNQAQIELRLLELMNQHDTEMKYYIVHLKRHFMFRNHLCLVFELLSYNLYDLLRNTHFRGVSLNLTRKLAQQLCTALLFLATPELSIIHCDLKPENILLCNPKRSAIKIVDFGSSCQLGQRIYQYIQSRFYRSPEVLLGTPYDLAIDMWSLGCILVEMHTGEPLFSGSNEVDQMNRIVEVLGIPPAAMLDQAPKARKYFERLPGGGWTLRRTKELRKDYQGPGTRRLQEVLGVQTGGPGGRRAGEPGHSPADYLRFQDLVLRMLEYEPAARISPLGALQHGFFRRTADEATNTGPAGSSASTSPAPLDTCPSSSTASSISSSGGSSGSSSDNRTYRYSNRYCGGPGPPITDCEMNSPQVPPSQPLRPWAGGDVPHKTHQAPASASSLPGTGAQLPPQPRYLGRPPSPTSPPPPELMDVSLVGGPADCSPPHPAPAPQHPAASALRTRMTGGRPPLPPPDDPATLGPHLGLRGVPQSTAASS
Assay protocol: HOTSPOT radiometric kinase assay
Type: biochemical
Experimental conditions: Table 4 dose-response; read-out: DYRK1B IC50 Values
Quantity: pIC50
Quick note: pIC50 means taking -log10 of the concentration in moles per liter.

Task item: Field: pIC50 (DYRK1B (Homo sapiens)). Entry: Cn1cncc1C1=CN(c2ncnc3nc[nH]c23)CCS1 [Compound 1, Aplithianine A]
Reply: 6.87

----------
System under test: PKCα (Homo sapiens, UniProt P17252)
Assay protocol: HOTSPOT radiometric kinase assay
Experimental conditions: read-out: PKCα IC50; 10 μM ATP
Quantity: IC50

Task item: Field: IC50 (PKCα (Homo sapiens, UniProt P17252)). Entry: Cn1cncc1C1=CN(c2ncnc3nc[nH]c23)CCS1
Reply: 1320 nM
